- Tested on: Escherichia coli
- protocol_summary: Antimicrobial activity against Escherichia coli at 512 ug/ml after 24 hrs by agar diffusion technique
- Format: functional
- settings: read-out: DIZ
value_type: zone of inhibition at 512 µg/mL (mm)
# output: bare number, implied unit mm

CCn1cc(C(=O)O)c(=O)c2cc(F)c(N3CCN(CN4CCOCC4)CC3)cc21: 30

The molecule listed as CCn1cc(C(=O)O)c(=O)c2cc(F)c(N3CCN(c4nnc(-c5ccccc5)c(-c5ccccc5)n4)CC3)cc21 has a reported zone of inhibition at 512 µg/mL of 0

The molecule listed as CCn1cc(C(=O)O)c(=O)c2cc(F)c(N3CCNCC3)cc21 has a reported zone of inhibition at 512 µg/mL of 19

The molecule listed as CCn1cc(C(=O)O)c(=O)c2cc(F)c(N3CC[N+](CCO)(CCO)CC3)cc21.[Br-] has a reported zone of inhibition at 512 µg/mL of 12

The molecule listed as CCn1cc(C(=O)O)c(=O)c2cc(F)c(N3CCN(CN4C(=O)c5ccccc5C4=O)CC3)cc21 has a reported zone of inhibition at 512 µg/mL of 9

The molecule listed as CCn1cc(C(=O)O)c(=O)c2cc(F)c(N3CCN(C=O)CC3)cc21 has a reported zone of inhibition at 512 µg/mL of 13

The molecule listed as CCn1cc(C(=O)O)c(=O)c2cc(F)c(N3CCN(CN4C(=O)c5cccc6cccc(c56)C4=O)CC3)cc21 has a reported zone of inhibition at 512 µg/mL of 13

The molecule listed as CCn1cc(C(=O)O)c(=O)c2cc(F)c(N3CCN(C4CCCC4)CC3)cc21 has a reported zone of inhibition at 512 µg/mL of 8
